Property: Plant response rating, Wheat, Winter; scope: individual compounds
# Tested on: winter wheat (Triticum aestivum)
# TEST PROTOCOL: Test D postemergence
# Type: in vivo
# ASSAY CONDITIONS: 31 g ai/ha, scale 0 to 100

Please review the entries below; each comes with its answer.
In: Check the records and state Plant response rating, Wheat, Winter for FC(F)(F)c1cnc(Oc2c(Br)cccc2Oc2ncc(Cl)cn2)nc1 [Compound 24]
Out: 10

In: Tell me measured Plant response rating, Wheat, Winter for N#Cc1cccc(Oc2ncc(Cl)cn2)c1Oc1ncc(Cl)cn1 [Compound 3] please.
Out: 10

In: Tell me its Plant response rating, Wheat, Winter given Fc1cnc(Oc2c(F)cccc2Oc2ncc(Cl)cn2)nc1 [Compound 23] as the entry.
Out: 0

Next:
In: Indicate the recorded Plant response rating, Wheat, Winter value for this compound: Fc1cnc(Oc2c(Br)cccc2Oc2ncc(Cl)cn2)nc1 [Compound 22]
Out: 5

====

# Tested on: blackgrass (Alopecurus myosuroides)
# TEST PROTOCOL: Test A postemergence
# Format: in vivo
# ASSAY CONDITIONS: Alopecurus myosuroides, post-emergence, 240 h, 31 g ai/ha, 0 to 100 scale, read-out: Plant response rating, Blackgrass
Recorded pest or weed control at 31 g/ha by entry
Report only the number, with the unit % understood.

Here is how some molecules turned out for pest or weed control at 31 g/ha.
In: Respond only with pest or weed control at 31 g/ha recorded for FC(F)c1cnc(Oc2c(Br)cccc2Oc2ncc(Cl)cn2)s1
Out: 10

In: Return reported pest or weed control at 31 g/ha. Input molecule: N#Cc1cccc(Oc2ncc(C(F)(F)F)cn2)c1Oc1ncc(Cl)cn1
Out: 80

In: Specify pest or weed control at 31 g/ha for N#Cc1cccc(Oc2ncc(Br)cn2)c1Oc1ccc(Cl)cn1 and stop.
Out: 10

Others:
In: # return recorded pest or weed control at 31 g/ha for input N#Cc1cccc(Oc2ncc(Cl)cn2)c1Oc1ncc(C(F)(F)F)cn1
Out: 40

====

Listing of entries alongside the reported plant injury at 62 g/ha.
# Test system: oilseed rape (Brassica napus)
# TEST PROTOCOL: Test C preemergence
# Format: in vivo
# ASSAY CONDITIONS: Brassica napus, pre-emergence; 62 g ai/ha, preemergence; scale 0 to 100; read-out: Plant response rating, Oilseed Rape
Returns: string containing the numeric result and its unit.

In: Give reported plant injury at 62 g/ha value for Clc1cnc(Oc2cccc(Br)c2Oc2ncc(Cl)cn2)nc1
Out: 98%

In: Using known records, supply plant injury at 62 g/ha for Fc1cnc(Oc2c(Cl)cccc2Oc2ncc(Cl)cn2)nc1
Out: 100%

In: # return recorded plant injury at 62 g/ha for entry N#Cc1cccc(Oc2ncc(C(F)(F)F)cn2)c1Oc1ncc(Cl)cn1
Out: 100%

Continuing:
In: State its plant injury at 62 g/ha for this compound: N#Cc1cccc(Oc2ncc(Cl)cn2)c1Oc1ncc(Cl)cn1
Out: 95%

====

# Tested on: soybean (Glycine max)
# TEST PROTOCOL: Test C postemergence
# Format: in vivo
# ASSAY CONDITIONS: Glycine max, post-emergence; Postemergence, 250 g ai/ha, scale 0 to 100; read-out: Plant response rating, Soybean
READOUT KIND: plant injury at 250 g/ha (%)
// return numeric value only (unit: %, not printed)

Sample answers from the record:
In: Write plant injury at 250 g/ha of Clc1cnc(Oc2cccc(Cl)c2Oc2ncc(Br)cn2)nc1 [Compound 17] ; system used: soybean (Glycine max)
Out: 90

In: Report plant injury at 250 g/ha on soybean (Glycine max) for this entry: Fc1cccc(Oc2ncc(Cl)cn2)c1Oc1ccc(Cl)nc1 [Compound 20]
Out: 65

In: Determine reported plant injury at 250 g/ha for Fc1cccc(Oc2ncc(Cl)cn2)c1Oc1ncc(Br)cn1 [Compound 27] ; test system: soybean (Glycine max).
Out: 90

Then there is this molecule:
In: Answer with plant injury at 250 g/ha of N#Cc1cccc(Oc2ncc(Cl)cn2)c1Oc1ncc(Cl)cn1 [Compound 3] measured for soybean (Glycine max).
Out: 95
